- Tested on: Staphylococcus aureus
- protocol.description: Antibacterial activity against methicillin-susceptible Staphylococcus aureus ATCC 29213 by broth microdilution method in presence of 5% pulmonary surfactant
- Format: functional
- recorded.conditions: ATCC 29213, Pulmonary surfactant
observed.property: MIC (µg/mL)
Could you give me the number in µg/mL? Just the number is fine.

[[record]]
test_smiles = "CCCCCCCCCC(=O)N[C@@H](Cc1ccc(N(C)C)cc1)C(=O)N[C@@H](CC(N)=O)C(=O)N[C@@H](CC(=O)O)C(=O)N[C@@H]1C(=O)NCC(=O)N[C@@H](CCCN)C(=O)N[C@@H](CC(=O)O)C(=O)N[C@H](C)C(=O)N[C@@H](CC(=O)O)C(=O)NCC(=O)N[C@H](CO)C(=O)N[C@@H]([C@@H](C)CC(=O)O)C(=O)N[C@@H](CC(=O)c2ccccc2N)C(=O)O[C@@H]1C"
observed_property = "MIC"
data_value = 2


Shift focus to the following entry.
Query string: Request the reported MIC associated with CCCCCCCCCC(=O)N[C@@H](Cc1ccc(OCC)cc1)C(=O)N[C@@H](CC(N)=O)C(=O)N[C@@H](CC(=O)O)C(=O)N[C@@H]1C(=O)NCC(=O)N[C@@H](CCCN)C(=O)N[C@@H](CC(=O)O)C(=O)N[C@H](C)C(=O)N[C@@H](CC(=O)O)C(=O)NCC(=O)N[C@H](CO)C(=O)N[C@@H]([C@@H](C)CC(=O)O)C(=O)N[C@@H](CC(=O)c2ccccc2N)C(=O)O[C@@H]1C
Result string: 16
